# Tested on: Rattus norvegicus
# testName: Reduction of food intake in Sprague-Dawley rat at 50 umol/kg, po after 2 hrs relative to control
# Type: functional

| molecule | inhibition in vivo at 50 µmol/kg [%] |
| --- | --- |
| C[C@H]1CNCCc2ccc(C(F)(F)F)cc21 | 41 |
| C[C@@H]1CNCCc2ccc(C(F)(F)F)cc21 | 45 |
| Clc1ccc2c(c1)CCNCC2 | 68 |
| C[C@@H]1CNCCc2ccc(Cl)cc21 | 41 |
| COc1cc2c(cc1Cl)C(C)CNCC2 (single isomer, unassigned; form 1) | 36 |
| C[C@@H]1CNCCc2ccc(Cl)c(Cl)c21 | 41 |
| CC1CNCCc2ccc(Cl)cc21 (racemic) | 62 |
| COc1cc2c(cc1Cl)C(C)CNCC2 (single isomer, unassigned; form 2) | 66 |

---

Measured pEC50, listed per entry.
# systemTested: 5-hydroxytryptamine receptor 2B (Homo sapiens)
# Sequence (P41595 whole entry): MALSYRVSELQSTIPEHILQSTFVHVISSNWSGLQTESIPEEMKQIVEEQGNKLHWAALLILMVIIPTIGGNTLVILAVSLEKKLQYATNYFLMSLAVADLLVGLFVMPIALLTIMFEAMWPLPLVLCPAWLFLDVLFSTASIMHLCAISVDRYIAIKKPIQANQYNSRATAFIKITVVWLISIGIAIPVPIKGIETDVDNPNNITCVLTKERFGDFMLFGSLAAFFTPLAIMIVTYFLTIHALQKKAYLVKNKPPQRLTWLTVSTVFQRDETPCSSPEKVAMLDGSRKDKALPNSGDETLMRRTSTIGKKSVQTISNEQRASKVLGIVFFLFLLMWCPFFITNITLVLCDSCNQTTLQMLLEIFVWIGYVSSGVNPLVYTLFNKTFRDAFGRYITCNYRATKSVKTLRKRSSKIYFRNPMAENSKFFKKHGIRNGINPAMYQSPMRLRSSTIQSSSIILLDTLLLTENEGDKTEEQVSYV
# testName: Agonist activity at human 5HT2B receptor expressed in HEK293 cells assessed as intracellular IP3 accumulation
pEC50: −log10 of the molar value.

| molecule | valueRelationSign | pEC50 |
| --- | --- | --- |
| C[C@H]1CNCCc2ccc(C(F)(F)F)cc21 | = | 6.30 |
| CC1CNCCc2ccccc21 (racemic) | = | 5.40 |
| CC1(C)CNCCc2ccc(Cl)cc21 | < | 5.00 |
| C[C@@H]1CNCCc2ccc(Cl)c(Cl)c21 | = | 5.90 |
| CC1CNCCc2ccc(F)cc21 (racemic) | < | 5.00 |
| c1ccc2c(c1)CCNCC2 | < | 5.00 |
| CC1CNCCc2cc(F)c(Cl)cc21 (racemic) | = | 6.50 |
| CC1CNCCc2c(Cl)cc(Cl)cc21 (stereo not drawn) | = | 6.10 |

---

# systemTested: 5-hydroxytryptamine receptor 2C (Homo sapiens)
# Sequence (P28335 whole entry): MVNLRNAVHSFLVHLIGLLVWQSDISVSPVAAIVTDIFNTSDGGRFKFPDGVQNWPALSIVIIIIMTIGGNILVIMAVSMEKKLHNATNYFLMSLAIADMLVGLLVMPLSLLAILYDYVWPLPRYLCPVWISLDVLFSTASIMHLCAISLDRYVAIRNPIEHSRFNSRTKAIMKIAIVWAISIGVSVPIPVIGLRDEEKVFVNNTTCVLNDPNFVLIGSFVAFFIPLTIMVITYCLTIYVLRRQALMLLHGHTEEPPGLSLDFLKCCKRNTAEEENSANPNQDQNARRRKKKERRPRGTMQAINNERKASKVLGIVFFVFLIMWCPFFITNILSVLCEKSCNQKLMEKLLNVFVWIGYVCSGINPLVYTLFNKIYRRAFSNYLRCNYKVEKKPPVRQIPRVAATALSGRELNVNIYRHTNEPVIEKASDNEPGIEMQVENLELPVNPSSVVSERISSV
# testName: Agonist activity at human 5HT2C receptor expressed in HEK293 cells assessed as intracellular IP3 accumulation
experimentalEndpoint: EC50 (nM)

| molecule | experimentalEndpoint | unitAbbrev | resultValue |
| --- | --- | --- | --- |
| COc1cc2c(cc1Cl)C(C)CNCC2 (single isomer, unassigned; form 1) | EC50 | nM | 7.94 |
| CC1CNCCc2cc(Cl)ccc21 (racemic) | EC50 | nM | 25.1 |
| CC1CNCCc2ccc(Br)cc21 (racemic) | EC50 | nM | 10 |
| C[C@H]1CNCCc2cc(Cl)c(Cl)cc21 | EC50 | nM | 3.98 |
| CC1(C)CNCCc2ccc(Cl)cc21 | EC50 | nM | 200 |
| C[C@@H]1CNCCc2ccc(C(F)(F)F)cc21 | EC50 | nM | 10 |
| Clc1ccc2c(c1)CCNCC2 | EC50 | nM | 12.6 |
| CC1CNCCc2ccc(F)cc21 (racemic) | EC50 | nM | 398 |
